target: PIK3CB;PIK3CG;PIK3CD;PIK3CA (human); test: Enzyme Assay
pIC50: −log10 of the molar value.
Label criterion met for high-side pIC50 (at or above 6) and criterion not met for low-side pIC50 (below it).

- smiles.str: "COCc1noc(-c2ccc3nc(-n4ccnc4)nc(N4CCOCC4)c3n2)n1"
  label: "criterion met"
- smiles.str: "Cc1ccc2nc(-c3ccccc3)nc(N3CCOCC3)c2n1"
  label: "criterion not met"
- smiles.str: "COCc1cc(CN2CCOCC2)c2nc(-n3ccnc3)nc(N3CCOCC3)c2n1"
  label: "criterion not met"

---

molecular target: UniProt:P48736; assay: Enzyme Assay
pIC50: −log10 of the molar value.

- smiles.str: "COC(=O)c1cc(Cl)c2nc(-n3cccn3)nc(N3CCOCC3)c2n1"
  assay.system: "UniProt:P48736"
  pIC50: 5.78
- smiles.str: "Cc1noc(-c2cc(N(C)C)c3nc(-n4ccnc4)nc(N4CCOCC4)c3n2)n1"
  assay.system: "UniProt:P48736"
  pIC50: 6.23
- smiles.str: "CSc1cc(C(=O)N(C)C)nc2c(N3CCOCC3)nc(-c3cccc(CO)c3)nc12"
  assay.system: "UniProt:P48736"
  pIC50: 6.85
- smiles.str: "Cc1noc(-c2ccc3nc(-n4ccnc4)nc(N4CCOCC4)c3n2)n1"
  assay.system: "UniProt:P48736"
  pIC50: 6.10
- smiles.str: "COCc1cc(SC)c2nc(-n3ccnc3)nc(N3CCOCC3)c2n1"
  assay.system: "UniProt:P48736"
  pIC50: 5.64

---

target: PIK3CB;PIK3CG;PIK3CD;PIK3CA (human); assay: Enzyme Assay
pIC50: −log10 of the molar value.
Returns met if the recorded pIC50 is greater than or equal to 6, and not met otherwise.

- smiles.str: "COC(=O)c1cc(SC)c2nc(-n3ccnc3)nc(N3CCOCC3)c2n1"
  assay.system: "PIK3CB;PIK3CG;PIK3CD;PIK3CA (human)"
  label: "met"
- smiles.str: "CSc1cc(-c2nnc(C)o2)nc2c(N3CCOCC3)nc(-n3ccnc3)nc12"
  assay.system: "PIK3CB;PIK3CG;PIK3CD;PIK3CA (human)"
  label: "met"
- smiles.str: "CN(C)CCNCc1ccc2nc(-n3ccnc3)nc(N3CCOCC3)c2n1"
  assay.system: "PIK3CB;PIK3CG;PIK3CD;PIK3CA (human)"
  label: "not met"
- smiles.str: "COC(=O)c1cc(SC)c2nc(Cl)nc(N3CCOCC3)c2n1"
  assay.system: "PIK3CB;PIK3CG;PIK3CD;PIK3CA (human)"
  label: "not met"
- smiles.str: "COC(=O)c1ccc2nc(-c3ccccc3)nc(N3CCOCC3)c2n1"
  assay.system: "PIK3CB;PIK3CG;PIK3CD;PIK3CA (human)"
  label: "met"
- smiles.str: "COC(=O)c1cc(SC)c2nc(-c3ccc(OC)cc3)nc(N3CCOCC3)c2n1"
  assay.system: "PIK3CB;PIK3CG;PIK3CD;PIK3CA (human)"
  label: "not met"
- smiles.str: "Cc1noc(-c2cc(N(C)C)c3nc(-n4cccn4)nc(N4CCOCC4)c3n2)n1"
  assay.system: "PIK3CB;PIK3CG;PIK3CD;PIK3CA (human)"
  label: "met"
- smiles.str: "COC(=O)c1cc(SC)c2nc(-c3ccncc3)nc(N3CCOCC3)c2n1"
  assay.system: "PIK3CB;PIK3CG;PIK3CD;PIK3CA (human)"
  label: "not met"
- smiles.str: "COC(=O)c1cc(Cl)c2nc(Cl)nc(N3CCOCC3)c2n1"
  assay.system: "PIK3CB;PIK3CG;PIK3CD;PIK3CA (human)"
  label: "not met"
- smiles.str: "COC(=O)c1cc(SC)c2nc(C)nc(N3CCOCC3)c2n1"
  assay.system: "PIK3CB;PIK3CG;PIK3CD;PIK3CA (human)"
  label: "not met"
- smiles.str: "c1cnc2c(N3CCOCC3)nc(-n3ccnc3)nc2c1"
  assay.system: "PIK3CB;PIK3CG;PIK3CD;PIK3CA (human)"
  label: "not met"
- smiles.str: "CSc1cc(-c2nc(C)no2)nc2c(N3CCOCC3)nc(-n3ccnc3)nc12"
  assay.system: "PIK3CB;PIK3CG;PIK3CD;PIK3CA (human)"
  label: "not met"
- smiles.str: "Cc1nnc(-c2cc(N(C)C)c3nc(-n4ccnc4)nc(N4CCOCC4)c3n2)o1"
  assay.system: "PIK3CB;PIK3CG;PIK3CD;PIK3CA (human)"
  label: "met"
- smiles.str: "Cc1noc(-c2ccc3nc(-n4cccn4)nc(N4CCOCC4)c3n2)n1"
  assay.system: "PIK3CB;PIK3CG;PIK3CD;PIK3CA (human)"
  label: "met"

---

target: PIK3CB;PIK3CG;PIK3CD;PIK3CA (human); experiment: Enzyme Assay
pIC50: −log10 of the molar value.

- smiles.str: "COCCN(C)c1cc(C(=O)OC)nc2c(N3CCOCC3)nc(-n3ccnc3)nc12"
  assay.system: "PIK3CB;PIK3CG;PIK3CD;PIK3CA (human)"
  pIC50: 5.85
- smiles.str: "COCc1cc(N(C)C)c2nc(-n3ccnc3)nc(N3CCOCC3)c2n1"
  assay.system: "PIK3CB;PIK3CG;PIK3CD;PIK3CA (human)"
  pIC50: 5.94
- smiles.str: "COCCNc1cc(C(=O)OC)nc2c(N3CCOCC3)nc(-n3ccnc3)nc12"
  assay.system: "PIK3CB;PIK3CG;PIK3CD;PIK3CA (human)"
  pIC50: 5.89
- smiles.str: "COC(=O)c1cc(SC)c2nc(-c3cn[nH]c3)nc(N3CCOCC3)c2n1"
  assay.system: "PIK3CB;PIK3CG;PIK3CD;PIK3CA (human)"
  pIC50: 5.90
- smiles.str: "Cc1ccc2nc(-n3ccnc3)nc(N3CCOCC3)c2n1"
  assay.system: "PIK3CB;PIK3CG;PIK3CD;PIK3CA (human)"
  pIC50: 6.02
- smiles.str: "COC(=O)c1ccc2nc(-n3ccnc3)nc(N3CCOCC3)c2n1"
  assay.system: "PIK3CB;PIK3CG;PIK3CD;PIK3CA (human)"
  pIC50: 6.14
- smiles.str: "COC(=O)c1cc(N2CCN(C)CC2)c2nc(-n3ccnc3)nc(N3CCOCC3)c2n1"
  assay.system: "PIK3CB;PIK3CG;PIK3CD;PIK3CA (human)"
  pIC50: 6.00
- smiles.str: "CSc1cc(C(=O)N(C)C)nc2c(N3CCOCC3)nc(-c3cccc4[nH]ncc34)nc12"
  assay.system: "PIK3CB;PIK3CG;PIK3CD;PIK3CA (human)"
  pIC50: 6.07
